Attribution: the supplement of paper PMC9170038

- Tested on: MS2 coat protein
- PROTOCOL: apparent KD of MS2 coat protein; higher = weaker reporter binding
- REPORTED CONDITIONS: Eterna round: R107; input ligand: none
READOUT: apparent KD of MS2 coat protein (nM)
Numbers only, in nM.

See these solved cases before continuing.
CONSTRUCT SEQUENCE	VALUE MEASURED
GGUGGCGUGACGGAUACCAGCCACCACCGCAAGACCACAUGAGGAUCACCCAUGUUGGGUGGCCCUUGGCAGCUGUCGUGCGGCG [#1 Same State - Theophylline B Attempt #19 (HarryS)]	213
CAGGCCUUGCCCGGUGUUCCGAAAGUGGAAGGAGCGCACAUUGGUGCAGGUAGGUCGCCACAUGAGGAUCACCCAUGUCUAGGCC [Aveatti]	20

Consider the record given below.
If you can, please state the reported apparent KD of MS2 coat protein value of GUCGGAGUCUGAAGGAGCGACAUGAGGAUCACCCAUGUCUCCCGUUAUGGGAGUUCCUUAGGUCAGGUAGGUCGCAGACUCCGAC [#1 Exclusion - Arginine B Attempt #25 (Inspired by Omei)] . 141

###

- Tested on: MS2 coat protein
- PROTOCOL: apparent KD of MS2 coat protein; designed switch direction (-1 OFF switch, 1 ON switch): -1; higher = weaker reporter binding
- REPORTED CONDITIONS: input ligand: microRNA oligo, concentration not stated
READOUT: apparent KD of MS2 coat protein (nM)
Answers are plain numbers, in nM.

See these solved cases before continuing.
CONSTRUCT SEQUENCE	UNIT	VALUE MEASURED
GAUGGAGAGCAGGAUAUCUUGGGUAAGCAUCAUAGAGAAGGGCUCACAUGAGGAUCACCCAUGUGGUCCAAGAA [Usbiridi] (Eterna round: R96, puzzle: Exclusion 6)	nM	15.1
ACAUGAGGAUCACCCAUGUAAACAUAAUGGCUGAUGUAGAGUCAGGAUAUGUGUGGCUAACAAUCGCAGAAGGGACAAGACUGG [Deportation 31 - Jieux - Exclusion NG 3] (Eterna round: R96, puzzle: Exclusion NG 3)	nM	19.2
CUGCUGGAGCGUCGCUUUGGUCGUACAUGAGGAUCACCCAUGUAGGAUAUGGUAAAAUUCGCCUGCUAGAAGGAUAGAGUGGUC [salish99_ExNG3_r04_618] (Eterna round: R96, puzzle: Exclusion NG 3)	nM	93.6

Consider the record given below.
If you can, please state the reported apparent KD of MS2 coat protein value of CUCGUGCAGCAAAGCUGUACGAGUACAUGAGGAUCACCCAUGUAGGAUAUGGUACGCAAAGCGUGCCAGAAGGACGUGCGUUAG [Mat - Exclusion NG 3 - Mod of JL - D94] (Eterna round: R96, puzzle: Exclusion NG 3) . 19.5

###

- Tested on: MS2 coat protein
- PROTOCOL: apparent KD of MS2 coat protein; designed switch direction (-1 OFF switch, 1 ON switch): -1; higher = weaker reporter binding
- REPORTED CONDITIONS: input ligand: none
Please respond with reported apparent KD of MS2 coat protein for every item in the list.
Numbers only, in nM.

See these solved cases before continuing.
CONSTRUCT SEQUENCE	UNIT	apparent KD of MS2 coat protein
UGUCAGAUGGUAGGAUAUCCCUAUCGCGUGUCCCUUUCCUAACAUGAGGAUCACCCAUGUCGGUGGGAGAAGGGCCGUAUGGUG [salish99_ExNG02_R04_036] (Eterna round: R96, puzzle: Exclusion NG 2)	nM	15.4
AUGUGACAUGAGGAUCACCCAUGUCAGGAUAUUUCCAAAAUAAAAUAAAACCGCGUGGAAAGAAGGGACGUGGU [EX1 A.8] (Eterna round: R97, puzzle: Exclusion 1)	nM	21.7

If you can, please state the reported apparent KD of MS2 coat protein value of UUAUACAAGCAAAGAUCCCACAUGAGGAUCACCCAUGUGCUCGUCUUAUAAGGUACUGUGACGAAAGUCACGGUACC [Eli 87 + Mat D67 6] (Eterna round: R97, puzzle: Sensor, turn-off variant 1) . 41.6
